testSystem: BRD4 BD2 protein (Homo sapiens (Human), UniProt O60885)
assayInfo: Fluorescence polarization binding affinity (Ki) with BRD4 BD2 protein
conditionNotes: fluorescence polarization; Ki calculated from IC50
endpoint: Ki (nM)
Kindly answer with a numeric value in nM, unit omitted.

Examples with answers:
# compound, Ki (nM)
data = [
    ("Cc1nnn2c1-c1ccc(-c3cnn(C)c3)cc1C(Nc1ccccc1CCN(C)C)CC2 (stereo not shown)", 12.9),
    ("Cc1nnn2c1-c1ccc(-c3cnn(C)c3)cc1C(Nc1cccc3cccnc13)CC2 (stereo not shown)", 11.6),
    ("Cc1nnn2c1-c1ccc(-c3cccnc3)cc1C(Nc1ccc(Cl)cc1)CC2 (stereo not shown)", 11.1),
]

Q: Fill blank: measured Ki of the compound Cc1nnn2c1-c1ccc(C3=CCN(C(C)C)CC3)cc1C(Nc1cc(Cl)ccc1F)CC2 (stereo not shown) [BI68, 2,2,2-trifluoroacetate] is ____.
Ans: 45.1

====

Recorded pKi, one value per entry.
testSystem: BRD4 BD2 protein (Homo sapiens (Human))
assayInfo: Fluorescence polarization binding affinity (Ki) with BRD4 BD2 protein
conditionNotes: fluorescence polarization; Ki calculated from IC50
Answer as the number alone; pKi is minus log10 of concentration in mol/L.

# compound, recordedValue
records = [
    ("CNC(=O)c1cccc(NC2CCn3nnc(C)c3-c3ccc(-c4cnn(C)c4)cc32)c1 (centres unmarked) [LB181]", 7.84),
    ("Cc1nnn2c1-c1ccc(-c3cnn(C)c3)cc1C(Nc1ccc(N(C)C)cc1)CC2 (centres unmarked) [LB17]", 7.36),
    ("Cc1nnn2c1-c1ccc(C3=CCNCC3)cc1C(Nc1cccc(C#N)c1)CC2 (centres unmarked) [LC75, 2,2,2-trifluoroacetate]", 6.93),
    ("Cc1nnn2c1-c1ccc(-c3cnn(C)c3)cc1C(Nc1ccc(CCO)cc1)CC2 (centres unmarked) [LB24]", 7.65),
    ("COC(=O)c1ccc(NC2CCn3nnc(C)c3-c3ccc(-c4cnn(C)c4)cc32)cc1 (centres unmarked) [LB37]", 7.96),
    ("Cc1nnn2c1-c1ccc(-c3cnn(C)c3)cc1C(Nc1ccnn1C)CC2 (centres unmarked) [BE118]", 7.63),
    ("Cc1nnn2c1-c1ccc(-c3cnn(C)c3)cc1C(Nc1ccc(C#N)cc1)CC2 (centres unmarked) [LC18]", 7.82),
]

Query compound follows.
Q: Request - read-out pKi | tested on BRD4 BD2 protein (Homo sapiens (Human)) | compound Cc1nnn2c1-c1ccc(C3=CCN(C4CCCC4)CC3)cc1C(Nc1cccc(C#N)c1)CC2 (centres unmarked) [BI31, 2,2,2-trifluoroacetate]
Ans: 6.82

====

Recorded IC50, one value per entry.
Tested on: multiple myeloma MM.1S cell line
assayInfo: Cell viability (CCK-8), multiple myeloma MM.1S
Format: cell-based
conditionNotes: MM.1S cells, 4 days, CCK-8, 50% inhibition of cell growth
Source text: 3. Determination of cell viability of the compound […] In the experiment, in addition to the tested compound, two other control groups were set up: 1) a control group adding the cells and the complete medium, but without adding the compound; 2) a control group adding the complete medium only, without adding the cells and the compound. […] The 96-well plate was read on a TECAN microplate reader, and the absorbance value at 450 nm wavelength was taken. […]
Kindly answer with a numeric value in nM, unit omitted.

# compound, testSystem, recordedValue
records = [
    ("CNC(=O)Cc1ccc(NC2CCn3nnc(C)c3-c3ccc(-c4cnn(C)c4)cc32)cc1 (stereo not drawn) [LB42]", "multiple myeloma MM.1S cell line", 16),
    ("Cc1nnn2c1-c1ccc(-c3cnn(C)c3)cc1C(Nc1cccc(O)c1)CC2 (stereo not drawn) [LB171]", "multiple myeloma MM.1S cell line", 20.8),
]

Q: Fill blank: measured IC50 of the compound CNC(=O)Cc1ccc(NC2CCn3nnc(C)c3-c3ccc(-c4cnn(C)c4)cc32)cc1 (stereo not drawn) [LB142] is ____.
Ans: 114
